System: Mammalian orthoreovirus 1
Test: Antiviral activity against Reo virus 1 in african green monkey Vero cells assessed as reduction of virus-induced cytopathogenicity
Type: functional
Recorded MIC by entry

C=CCNC(=S)Nc1ccc(-c2n[nH]c(=S)n2C)cc1	> 80 µg/mL

[in] Give MIC (Mammalian orthoreovirus 1) of the following compound: `C=CCn1c(-c2ccc(NC(=S)NC)cc2)n[nH]c1=S`
[out] > 80 µg/mL

[in] Can you check `C=CCNC(=S)Nc1ccc(OCc2n[nH]c(=S)n2-c2ccccc2)cc1` next?
[out] > 80 µg/mL

[in] Could you do the same for `Cn1c(COc2ccc(NC(=S)Nc3ccccc3)cc2)n[nH]c1=S` , please?
[out] > 80 µg/mL

[in] Now try `CCn1c(COc2ccc(N)cc2)n[nH]c1=S` .
[out] > 16 µg/mL

[in] Can you check `S=C(Nc1ccccc1)Nc1ccc(OCc2n[nH]c(=S)n2-c2ccccc2)cc1` next?
[out] > 16 µg/mL

* * *

System: Mycobacterium tuberculosis
Assay: Antitubercular activity against Mycobacterium tuberculosis H37Rv at 6.25 ug/ml by MABA assay
Type: functional
MEASUREMENT LABEL: inhibition at 6.25 µg/mL
# do not omit the unit; it follows the number

Below, each entry is followed by its recorded inhibition at 6.25 µg/mL result.
C=CCNC(=S)Nc1ccc(OCc2n[nH]c(=S)n2CC)cc1	75%
CCn1c(COc2ccc(NC(=S)Nc3ccccc3)cc2)n[nH]c1=S	76%
Cn1c(COc2ccc(NC(=S)Nc3ccccc3)cc2)n[nH]c1=S	70%

[in] Which inhibition at 6.25 µg/mL reading was recorded for the molecule `C=CCn1c(COc2ccc(NC(=S)Nc3ccccc3)cc2)n[nH]c1=S` ?
[out] 79%

[in] Here is the next molecule: `C=CCNC(=S)Nc1ccc(OCc2n[nH]c(=S)n2CC=C)cc1`
[out] 59%

* * *

Assay: Cytotoxicity against human HEL cells assessed as alteration of cell morphology
Format: cell-based
Reported MCC values are given for each entry in this list.

See these solved cases before continuing.
NC(=O)c1ncn([C@@H]2O[C@H](CO)[C@@H](O)[C@H]2O)n1 [RIBAVIRIN]	> 400 µg/mL
C=CCNC(=S)Nc1ccc(-c2nnc(SCc3ccc(Cl)cc3Cl)n2-c2ccccc2)cc1	≥ 16 µg/mL
C=CCNC(=S)Nc1ccc(OCc2n[nH]c(=S)n2-c2ccccc2)cc1	> 400 µg/mL
CCNC(=S)Nc1ccc(OCc2n[nH]c(=S)n2CC)cc1	> 400 µg/mL
S=C(Nc1ccccc1)Nc1ccc(-c2n[nH]c(=S)n2-c2ccccc2)cc1	≥ 80 µg/mL
C=CCn1c(COc2ccc(N)cc2)n[nH]c1=S	> 400 µg/mL

[in] I have this compound here, `C=CCn1c(-c2ccc(NC(=S)NC)cc2)n[nH]c1=S` , and I need its recorded MCC.
[out] 400 µg/mL

* * *

Assay: Cytotoxicity against human E6SM cells
Type: cell-based
Settings: E6SM cells
MEASUREMENT LABEL: MCC

CCCCCCNC(=S)Nc1ccc(-c2n[nH]c(=S)n2-c2ccccc2)cc1	≥ 16 µg/mL
C=CCn1c(COc2ccc(NC(=S)NC)cc2)n[nH]c1=S	> 400 µg/mL
CCCCCCNC(=S)Nc1ccc(-c2n[nH]c(=S)n2C)cc1	400 µg/mL
S=C(Nc1ccc(Cl)cc1)Nc1ccc(-c2n[nH]c(=S)n2-c2ccccc2)cc1	≥ 16 µg/mL
C=CCn1c(COc2ccc(NC(=S)NCC)cc2)n[nH]c1=S	> 400 µg/mL
NC(=O)c1ncn([C@@H]2O[C@H](CO)[C@@H](O)[C@H]2O)n1	> 400 µg/mL
CNC(=S)Nc1ccc(-c2nnc(SCc3ccccc3)n2C)cc1	≥ 16 µg/mL
CNC(=S)Nc1ccc(OCc2n[nH]c(=S)n2C)cc1	> 400 µg/mL
C=CCn1c(-c2ccc(NC(=S)NC)cc2)n[nH]c1=S	400 µg/mL
Nc1ccc(OCc2n[nH]c(=S)n2-c2ccccc2)cc1	> 400 µg/mL

[in] Item `C=CCNC(=S)Nc1ccc(OCc2n[nH]c(=S)n2CC)cc1` has what recorded MCC?
[out] > 400 µg/mL

* * *

Test: Cytotoxicity against human HeLa cells
Type: cell-based
MCC values for the compounds below.

Please review the entries below; each comes with its answer.
S=C(Nc1ccccc1)Nc1ccc(OCc2n[nH]c(=S)n2-c2ccccc2)cc1	80 µg/mL
CCNC(=S)Nc1ccc(OCc2n[nH]c(=S)n2-c2ccccc2)cc1	400 µg/mL
C=CCNC(=S)Nc1ccc(-c2n[nH]c(=S)n2C)cc1	400 µg/mL

[in] Request the reported MCC associated with `CNC(=S)Nc1ccc(OCc2n[nH]c(=S)n2-c2ccccc2)cc1`
[out] 400 µg/mL

[in] Do the same for `CCn1c(COc2ccc(N)cc2)n[nH]c1=S` please
[out] ≥ 400 µg/mL

[in] // same read-out, input: `CNC(=S)Nc1ccc(-c2n[nH]c(=S)n2C)cc1`
[out] 400 µg/mL

* * *

Reported MCC values for a set of compounds
Test: Cytotoxicity against human HeLa cells
Format: cell-based
Write the answer as a number in µg/mL, unit excluded.

For orientation, consider the following solved cases.
C=CCNC(=S)Nc1ccc(OCc2n[nH]c(=S)n2CC=C)cc1	400
C=CCNC(=S)Nc1ccc(-c2n[nH]c(=S)n2CCCCCC)cc1	80

[in] I would be grateful if you could share the reported MCC for `S=C(Nc1ccc(Cl)cc1)Nc1ccc(-c2n[nH]c(=S)n2-c2ccccc2)cc1` .
[out] 80

* * *

Test system: Sindbis virus
Test: Antiviral activity against Sindbis virus in african green monkey Vero cells assessed as reduction of virus-induced cytopathogenicity
Format: functional
MEASUREMENT LABEL: MIC

CCNC(=S)Nc1ccc(OCc2n[nH]c(=S)n2CC)cc1	> 80 µg/mL
S=C(Nc1ccccc1)Nc1ccc(-c2n[nH]c(=S)n2-c2ccccc2)cc1	> 16 µg/mL
CCCCCCNC(=S)Nc1ccc(-c2n[nH]c(=S)n2CC)cc1	> 80 µg/mL
C=CCNC(=S)Nc1ccc(-c2n[nH]c(=S)n2CC)cc1	> 80 µg/mL
CCNC(=S)Nc1ccc(-c2n[nH]c(=S)n2C)cc1	> 80 µg/mL

[in] So what MIC did `CCCCCCNC(=S)Nc1ccc(-c2n[nH]c(=S)n2C)cc1` get with Sindbis virus?
[out] > 16 µg/mL

[in] Repeat for the following molecule: `CCCCCCNC(=S)Nc1ccc(-c2n[nH]c(=S)n2CCCCCC)cc1`
[out] > 3.2 µg/mL

[in] Follow-up entry: `CCn1c(COc2ccc(NC(=S)Nc3ccccc3)cc2)n[nH]c1=S`
[out] > 80 µg/mL

[in] Same thing, different molecule: `Cn1c(-c2ccc(NC(=S)Nc3ccccc3)cc2)n[nH]c1=S`
[out] > 80 µg/mL

[in] Continue with NC(=O)c1ncn([C@@H]2O[C@H](CO)[C@@H](O)[C@H]2O)n1 [RIBAVIRIN]
[out] 240 µg/mL

[in] How about `C=CCNC(=S)Nc1ccc(-c2nnc(SCc3ccc(Cl)cc3Cl)n2-c2ccccc2)cc1` ?
[out] > 16 µg/mL

* * *

The entries below are paired with their reported MIC.
Test system: Human alphaherpesvirus 2
Assay: Antiviral activity against HSV2 G in human HEL cells assessed as reduction of virus-induced cytopathogenicity
Type: functional
Settings: Human alphaherpesvirus 2, G
Response body: numeric value in µg/mL, unit text excluded.

A selection of reference data follows.
CNC(=S)Nc1ccc(OCc2n[nH]c(=S)n2C)cc1	240
O=c1[nH]c(=O)n([C@H]2C[C@H](O)[C@@H](CO)O2)cc1/C=C/Br	80

Next, consider the following compound.
[in] Recorded MIC for `C=CCNC(=S)Nc1ccc(OCc2n[nH]c(=S)n2CC=C)cc1` , please?
[out] 240

* * *

Experiment: Cytotoxicity against human MT4 cells by MTT assay
Assay type: cell-based
Group membership follows CC50 per the scheme low-valued: < 30 µg/mL; mid-valued: ≥ 30 µg/mL and < 80 µg/mL; high-valued: ≥ 80 µg/mL

CNC(=S)Nc1ccc(OCc2n[nH]c(=S)n2-c2ccccc2)cc1	high-valued
CNC(=S)Nc1ccc(OCc2n[nH]c(=S)n2C)cc1	high-valued

[in] Where would `CCCCCCNC(=S)Nc1ccc(-c2n[nH]c(=S)n2CC)cc1` land among the classes by reported CC50?
[out] low-valued

[in] Here is the next compound: `C=CCn1c(COc2ccc(NC(=S)NCC)cc2)n[nH]c1=S`
[out] high-valued

[in] Subsequent entry: `CCNC(=S)Nc1ccc(OCc2n[nH]c(=S)n2CC)cc1`
[out] high-valued

[in] Let us now turn to `C=CCNC(=S)Nc1ccc(OCc2n[nH]c(=S)n2-c2ccccc2)cc1`
[out] high-valued

[in] Also check `CCNC(=S)Nc1ccc(OCc2n[nH]c(=S)n2-c2ccccc2)cc1`
[out] low-valued

[in] And for `C=CCNC(=S)Nc1ccc(-c2nnc(SCc3ccc(Cl)cc3Cl)n2C)cc1` ?
[out] high-valued

[in] Next record, please: `C=CCNC(=S)Nc1ccc(OCc2n[nH]c(=S)n2C)cc1`
[out] high-valued

[in] Try this compound next: `CCn1c(COc2ccc(NC(=S)NC)cc2)n[nH]c1=S`
[out] mid-valued

[in] `S=C(Nc1ccc(Cl)cc1)Nc1ccc(-c2n[nH]c(=S)n2-c2ccccc2)cc1` , same question.
[out] low-valued

[in] Next compound up: `CCn1c(COc2ccc(N)cc2)n[nH]c1=S`
[out] high-valued

[in] And the next one, `C=CCn1c(COc2ccc(NC(=S)Nc3ccccc3)cc2)n[nH]c1=S` ?
[out] low-valued

[in] Entry `CCCCCCNC(=S)Nc1ccc(-c2n[nH]c(=S)n2-c2ccccc2)cc1` please
[out] low-valued

[in] Further, for `CCNC(=S)Nc1ccc(-c2n[nH]c(=S)n2C)cc1` ?
[out] high-valued

[in] `CCNC(=S)Nc1ccc(OCc2n[nH]c(=S)n2C)cc1` , same question.
[out] high-valued

[in] Please give the result for `C=CCNC(=S)Nc1ccc(-c2n[nH]c(=S)n2CC)cc1` too.
[out] mid-valued

[in] One more compound: `CCCCCCNC(=S)Nc1ccc(-c2n[nH]c(=S)n2CCCCCC)cc1`
[out] low-valued

// data source = ChEMBL document CHEMBL1149790
